# Assay target: Fibroblast growth factor 10 (Homo sapiens)
# Protocol notes: FGF10 binders on small-molecule microarrays, primary screen, biochemical, small-molecule microarray, 635 nm fluorescence (AID 1102)
# Settings: FGF10 binding, fluorescence 635 nm, higher = more signal
Measure: composite z-score
Just the number, please, no unit after it.

The reported value for C=C(CCCC)C(=O)CC[C@H](OC(=O)c1ccccc1-c1ccccc1C(=O)O)c1ccccc1OCCO in terms of composite z-score is 0.271

So for COC(=O)C1N=C(c2ccc(OCCCO)cc2)N(c2ccccc2)O1 (configuration not stated) , the logged composite z-score turned out to be 1.48

Consider CCOC(=O)C1=C[C@@H](C(C)(C)C)N(S(=O)(=O)c2ccc(C)cc2)[C@H]1c1ccc(C)cc1 . Its measured composite z-score is 1.3

get_value(item= O=C(NCC(O)CO)[C@@]1(CCS(=O)(=O)c2ccccc2)COC(c2ccc(OCCCO)cc2)=N1 (some centres not stated) , readout=composite z-score) returns 0.655

composite z-score in this record for C=CCC(OC(C)=O)[C@@H]1[C@@H](N(Cc2ccc(-c3cccc(C(F)(F)F)c3)o2)C(=O)Cc2ccc(OC)cc2)c2cc(OCCCO)ccc2N1C(=O)Cc1ccc2ccccc2c1 (some centres not stated) : -0.0775

composite z-score for COCCOC(=O)N1C(=O)[C@@]2(c3cc(C#CC4(O)CCCCCC4)ccc31)[C@H](C(=O)N1CCN(c3ncccn3)CC1)[C@H]1C(=O)O[C@H](c3ccccc3)[C@H](c3ccccc3)N1[C@@H]2c1ccccc1OCCO is 0.864

Please fill in: composite z-score reported for [N-]=[N+]=Nc1ccccc1C[C@]1(C(=O)NCc2ccccc2)COC(c2ccc(OCCCO)cc2)=N1 = 1.16

====

Provide the recorded composite z-score for the entries that follow.
# Assay target: Torsin-1A-interacting protein 1 (Homo sapiens)
# Protocol notes: LAP1 binders from COS7 cell lysate, primary screen, small-molecule microarray, 635/667 nm fluorescence (AID 1116)
# Settings: COS7-hLAP1 lysate binding, 635 nm fluorescence, higher = more signal

Consider COc1ccc([Si](C)(C)[C@@H]2[C@@H](CC(=O)N3Cc4ccccc4C[C@H]3CO)O[C@]3(C(=O)N(Cc4ccc(N5CCC5=O)cc4)c4ccccc43)[C@H]2C)cc1 . Its measured composite z-score is 1.24

The compound identified as CCCCC=C[C@@H](NC(=O)c1ccccc1)c1ccccc1 registered its composite z-score at 0.206

For this compound ( CCOC(=O)C[C@H]1[C@H](OC(=O)c2ccccc2-c2ccccc2)[C@@H](NC(=O)c2ccccc2)c2cc(OCCCO)ccc2N1C(=O)c1ccccc1 ), measured composite z-score is -0.244

Entry C=C(CCCC)C(=O)CC[C@H](OC(=O)c1ccccc1-c1ccccc1C(=O)O)c1ccccc1OCCO , composite z-score reported as 0.442

Documented composite z-score of C=C[C@@H](C)[C@@H](OC(=O)Nc1ccc(SC)cc1)c1ccc(OCCO)cc1 : 0.882

The recorded composite z-score for entry CC(C)[C@H]1NC(=O)[C@@]23C(=O)N[C@@H](Cc4ccccc4)C2[C@H](C)[C@@]2(C)O[C@H]2C3/C=C/CCC/C=C/CNC(=O)[C@H](Cc2ccccc2)NC1=O (some centres not stated) equals -0.148

composite z-score recorded for this compound, CC1CC/C=C\[C@H]2OC34C=CCN(C(C)(C)C)C(=O)[C@H]3N(C(CO)C(C)C)C(=O)[C@@H]4C2C(=O)O1 (some centres not stated) , is 0.952

====

# Protocol notes: binders of probe aHhip on microarray, primary screen, stem cell growth factor project, biochemical, small-molecule microarray, fluorescence 635/667 (AID 1087);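 further: score merges spot fluorescence at 667nm with spot signal to noise ratio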
# Settings: higher = more signal
Give composite z-score for every item shown.
Keep the answer to the number alone.

Form: molecule = CCCCC=C[C@@H](NC(=O)c1ccccc1)c1ccccc1 ; composite z-score = -0.206

Looking up CCCCC(=C=CC[C@H](O)c1ccc(OCCO)cc1)C[C@H](O)COCc1ccccc1 , I found its composite z-score recorded as 0.152

Form: molecule = COCCOC(=O)N1C(=O)[C@@]2(c3cc(C#CCNC(N)=O)ccc31)[C@H](c1ccc(O)cc1)N1[C@H](c3ccccc3)[C@H](c3ccccc3)OC(=O)[C@H]1[C@@H]2C(=O)N1CCN(c2ncccn2)CC1 ; composite z-score = -0.218

The molecule listed as COc1ccc(C#Cc2ccc3c(c2)[C@]2(C(=O)N3)[C@H](c3ccc(OCCO)cc3)N3[C@H](c4ccccc4)[C@H](c4ccccc4)OC(=O)[C@H]3[C@@H]2C(=O)N2CCc3cc(OC)c(OC)cc3C2)cc1 has a reported composite z-score of -0.623

Consider COc1ccc(NC(=O)O[C@H]2[C@@H]3OC(=O)[C@H](Cc4cccc(Br)c4)C/C=C/C[C@@H](Cc4cccc(Br)c4)C(=O)O[C@H]3[C@@H](OC)O[C@@H]2CO)cc1 . Its measured composite z-score is 0.285

Kindly note the recorded composite z-score for C=CCC(OC(C)=O)[C@@H]1[C@@H](N(Cc2cccc3ccccc23)C(=O)c2cccc3ccccc23)c2cc(OCCCO)ccc2N1C(=O)c1ccc2ccccc2c1 (stereo not given in full) , which is -0.132

The value of composite z-score measured for the molecule COc1ccc([Si](C)(C)[C@@H]2[C@@H](CC(=O)N3Cc4ccccc4C[C@H]3CO)O[C@]3(C(=O)N(c4ccccc4)c4ccccc43)[C@H]2C)cc1 turned out to be 0.433

Lookup result for O=C1C2C=CC(C(O)c3ccc(I)cc3)N(Nc3ccccc3)C2C(=O)N1c1ccccc1 (stereo not given) ; measured composite z-score: -0.0988

Note to self: composite z-score recorded for CC(C)C(=C=CC[C@H](O)c1cccc(OCCO)c1)CCO was -0.287

Note to self: composite z-score recorded for COc1ccc([Si](C)(C)[C@@H]2[C@@H](CCn3cc([C@H](O)c4ccccc4)nn3)O[C@]3(C(=O)N(c4ccccc4)c4ccccc43)[C@H]2C)cc1 was -0.122

Field composite z-score (entry CC(=O)N1CC(C(O)C2C=CC3C(=O)NC(=O)C3N2Nc2ccc(Cl)cc2Cl)c2ccccc21 (stereo not given) ) reads 0.0854

In plain terms, COCC1=C2[C@@H](CCc3ccccc3)OB(O)C[C@@H]2[C@@H]2C(=O)N(C)C(=O)[C@@H]2C1 has a documented composite z-score of -0.0618

GET /value?item= CN(C)CCCCNC(=O)[C@H]1C[C@H]2C(=O)N[C@@H](CCCC[N+](C)(C)C)C(=O)N2[C@H]1c1ccc(O)cc1 &field=composite z-score returns -0.132

According to the records, this molecule CN1C(=O)C2C=CC(C(O)c3cc(C(F)(F)F)cc(C(F)(F)F)c3)N(Nc3ccccc3)C2C1=O (stereo not given) displays composite z-score of -0.0994

// composite z-score value for C=C(COC)/C(=C/C[C@H](OC(C)=O)c1cccc(OCCO)c1)c1cnc2ccccc2c1 : 0.107

====

# Assay target: Neurogenic locus notch homolog protein 2 (Homo sapiens)
# Protocol notes: Notch2 binders on small-molecule microarrays, primary screen, biochemical, small-molecule microarray, 635 nm fluorescence, stem cell growth factors (AID 1073)
# Settings: Notch2 binding, higher = more signal
Answer each item with its documented composite z-score.
Field format: numeric only.

composite z-score reported for this compound COCCOC(=O)N1C(=O)[C@@]2(c3cc(C#Cc4ccc(OC)cc4)ccc31)[C@H](c1ccc(OCCO)cc1)N1[C@H](c3ccccc3)[C@H](c3ccccc3)OC(=O)[C@H]1[C@@H]2C(=O)Nc1nc2ccccc2s1 : 1.21

composite z-score for C=C(/C(=C/C[C@@H](OC(=O)c1ccncc1)c1cccc(OCCO)c1)c1cnc2ccccc2c1)C(C)C is 1.22

Measured composite z-score, CCCNC(=O)[C@@]1(Sc2ccc(C)cc2)CC(=O)N(C2CCCCC2)[C@@H]1c1ccc(CO)cc1I : 0.517

// field: composite z-score; key: NC(=O)N1C(=O)C2C(C1=O)C1C=C(CCCO)C2C(C2CC2)N1Cc1cccc(OC(F)(F)F)c1 (stereo unspecified) ; value = -0.22

The compound COCC(=C=CC[C@H](O)c1cccc(OCCO)c1)C[C@H](O)COCc1ccccc1 showed composite z-score equal to 0.276

So for C=CCC(OC(C)=O)[C@@H]1[C@@H](N(Cc2cccc3ccccc23)C(=O)c2cccc3ccccc23)c2cc(OCCCO)ccc2N1C(=O)c1ccc2ccccc2c1 (stereo partly specified) , the logged composite z-score turned out to be -0.833

Per the record, O=C1OCCC=C[C@H]2OC34C=CCN(c5ccc(Cl)cc5)C(=O)[C@H]3N(CCCCCCO)C(=O)[C@@H]4C12 (stereo partly specified) has composite z-score of -0.879

Record summary for C=CCC(OC(C)=O)[C@@H]1[C@@H](N(Cc2ccc(-c3cccc(C(F)(F)F)c3)o2)C(=O)Cc2ccc(OC)cc2)c2cc(OCCCO)ccc2N1C(=O)Cc1ccc2ccccc2c1 (stereo partly specified) : reported composite z-score = -0.696

In plain terms, COC(=O)C1=CC(CCCO)=CC(c2ccc(CN3CCCC3)cc2)N(Cc2cc3c(cc2Br)OCO3)C=C1C(=O)OC (stereo unspecified) has a documented composite z-score of 1.61

composite z-score for COCCOC(=O)N1C(=O)[C@@]2(c3cc(C#CCNC(N)=O)ccc31)[C@H](c1ccc(OCCO)cc1)N1[C@H](c3ccccc3)[C@H](c3ccccc3)OC(=O)[C@H]1[C@@H]2C(N)=O is 1.49

Form: compound = COCCOC(=O)N1C(=O)[C@@]2(c3cc(C#CCC(C(=O)OC)C(=O)OC)ccc31)[C@H](C(=O)NC[C@H](O)c1ccccc1)[C@H]1C(=O)O[C@H](c3ccccc3)[C@H](c3ccccc3)N1[C@@H]2c1ccc(O)cc1 ; composite z-score = 0.269

# composite z-score of C=CCNC(=O)[C@H]1[C@@H]2C(=O)O[C@@H](c3ccccc3)[C@@H](c3ccccc3)N2[C@@H](c2ccc(O)cc2)[C@]12C(=O)N(C(=O)OCCOC)c1ccc(C#CCC(C(=O)OC)C(=O)OC)cc12 = 0.719

Query O=C(O)[C@H]1C[C@H]2C(=O)N[C@@H](Cc3ccccc3)C(=O)N2[C@H]1c1cccc(OCCO)c1 yields composite z-score of -0.116

Form: compound = COCCOC(=O)N1C(=O)[C@@]2(c3cc(C#CCNC(N)=O)ccc31)[C@H](c1ccc(O)cc1)N1[C@H](c3ccccc3)[C@H](c3ccccc3)OC(=O)[C@H]1[C@@H]2C(=O)N1CCN(c2ncccn2)CC1 ; composite z-score = 0.629

Notebook: CCCCNC(=O)c1ccc(C#C[Si](C(C)C)(C(C)C)C(C)C)c(OC(C)=O)c1 , composite z-score read as 1.57

composite z-score measured on CC(C)N1CC=CC23O[C@@H]4/C=C\CCCOC(=O)C4[C@H]2C(=O)N(CCCCCCO)[C@@H]3C1=O (stereo partly specified) = -0.602

Lookup result for CC(=O)n1cc(C(O)C2C=CC3C(=O)N(c4ccccc4)C(=O)C3N2Nc2ccc(C(C)C)cc2)c2ccccc21 (stereo unspecified) ; measured composite z-score: 1.55

Field composite z-score (entry O=C(CS)NCCCCCCNC(=O)[C@@H]1C[C@@H]2C(=O)NCC(=O)N2[C@@H]1c1ccc(O)cc1 ) reads -0.918

For reference, reported composite z-score for COC(=O)[C@@]1(Cc2ccc(OC)cc2)[C@H]2c3cc(C(=O)N4CCCC4)n(Cc4cc(C)n(C)n4)c3C[C@H]2CN1C(=O)c1ccccc1 stands at 1.76

So, CCc1cccc(NC(=O)O[C@H]2[C@H](OC(=O)Nc3ccccc3)[C@H](OC(=O)Nc3ccccc3)[C@@H](OC)O[C@@H]2CO)c1 ? Its composite z-score was 1.19

Noted for Cc1ccccc1C(O)C1C=CC2C(=O)NC(=O)C2N1Nc1ccc(Cl)cc1Cl (stereo unspecified) : its composite z-score reads 1.48

Field composite z-score (entry NC(=O)NCC#Cc1ccc2c(c1)[C@]1(C(=O)N2)[C@H](C(=O)N2CCN(c3ncccn3)CC2)[C@H]2C(=O)O[C@H](c3ccccc3)[C@H](c3ccccc3)N2[C@@H]1c1ccc(OCCO)cc1 ) reads 0.884

Data point: COc1ccc(C#Cc2ccc3c(c2)[C@]2(C(=O)N3)[C@H](C(=O)Nc3nc4ccccc4s3)[C@H]3C(=O)O[C@H](c4ccccc4)[C@H](c4ccccc4)N3[C@@H]2c2ccccc2OCCO)cc1 ; composite z-score = 0.98

In plain terms, CCOC(=O)C[C@H]1[C@H](OC(=O)c2ccc(-c3ccccc3)cc2)[C@@H](NC(=O)Cc2ccc(OC)cc2)c2cc(OCCCO)ccc2N1C(=O)Cc1ccc(OC)cc1 has a documented composite z-score of 0.216

The reported composite z-score of the compound COCCOC(=O)N1C(=O)[C@@]2(c3cc(C#CCCO)ccc31)[C@H](C(N)=O)[C@H]1C(=O)O[C@H](c3ccccc3)[C@H](c3ccccc3)N1[C@@H]2c1ccc(OCCO)cc1 was 1.43

Measured composite z-score, COc1cc2c(cc1O)C(c1cccs1)N(Cc1sc3ccccc3c1Cl)CC2 (stereo unspecified) : 1.55
